B1: Azoarcus group I ribozyme (parent)
chain: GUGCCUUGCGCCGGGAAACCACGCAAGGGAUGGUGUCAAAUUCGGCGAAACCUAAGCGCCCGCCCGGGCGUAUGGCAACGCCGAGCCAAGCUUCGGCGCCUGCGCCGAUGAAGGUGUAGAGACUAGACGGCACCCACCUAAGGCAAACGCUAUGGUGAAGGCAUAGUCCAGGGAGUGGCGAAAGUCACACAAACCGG

variants of: B1; test: reverse-splicing fitness (ratio to wild type); higher = more active; in vitro selection; Mg2+ level not given
VALUE KIND: reverse-splicing fitness
Reply with the value as a number alone.

Lookup: Query: reverse-splicing fitness; subject: A120U A145G C150U U176G
Found: 0.155

Lookup: Which reverse-splicing fitness is reported for this variant? C82A A120U C150A C169A
Found: 0.0042

Lookup: What value of reverse-splicing fitness has been recorded for this entry: A111C A120U A145U C150U C169G U176G
Found: 0.00261

Lookup: Item C82U A111U A120C A145C C150A C169U U176G has what recorded reverse-splicing fitness?
Found: 0.00541

Lookup: Please report the recorded reverse-splicing fitness for C82G A111G A145C C150A .
Found: 0.0192

Lookup: Look at this variant and give its reported reverse-splicing fitness. C82U A120U A145U C150U C169A U176C
Found: 0.00256

Lookup: Field request: reverse-splicing fitness | item: C82U A111C A120U A145U C150G C169U
Found: 0.00311

Lookup: Tell me the measured reverse-splicing fitness of C82U A111U A145C C169U U176A , please.
Found: 0.0134

Lookup: What does the data say about its reverse-splicing fitness? Entry: C82U A111C A145G C150A C169U U176G
Found: 0.00739

Lookup: Request the reported reverse-splicing fitness associated with A111U A120U A145C C150A C169A U176G
Found: 0.00243

Lookup: Record request: reverse-splicing fitness value, item A111C A120G C150A C169A U176C
Found: 0.023

Lookup: I'd like to know its reverse-splicing fitness. The variant in question is C82A A111G A120U A145G C150U C169U
Found: 0.00572

Lookup: Sample A120U A145C C150U C169U U176A — what was its reverse-splicing fitness?
Found: 0.0309

Lookup: Reported reverse-splicing fitness, variant C82A A120U A145U C169U U176A : ____
Found: 0.00202

Lookup: Name the recorded reverse-splicing fitness for C82U A111C A120C A145G C150U U176G .
Found: 0.00635

Lookup: Quick one: reverse-splicing fitness for A111C A120U C150A C169U U176C ?
Found: 0.0062

Lookup: Form field: reported reverse-splicing fitness of C82G A111G A120G C150A C169U U176G
Found: 0.00912

Lookup: Data request, read-out reverse-splicing fitness, for C82G A111G A120C A145G C150A C169G U176G
Found: 0.00696

Lookup: GET /values?readout=reverse-splicing fitness&item= C82U C169U U176A
Found: 0.0123

Lookup: I would be grateful if you could share the reported reverse-splicing fitness for C82A A111G A120G A145U C150A C169A U176G .
Found: 0.00585

Lookup: Query (variant): C82G A111G A120G A145G U176C ; field requested: reverse-splicing fitness
Found: 0.0204

Lookup: Fill blank: measured reverse-splicing fitness of the variant C82G A120G A145G C150G C169G is ____.
Found: 0.0108

Lookup: What does the record list as reverse-splicing fitness for C82A A120U A145U U176A ?
Found: 0.036

Lookup: Which measured reverse-splicing fitness value corresponds to C82G A111C A120U C169G U176A ?
Found: 0.00344

Lookup: Record request: reverse-splicing fitness value, item C82A A111G C150A C169A U176C
Found: 0.0218

Lookup: Please give the measured reverse-splicing fitness for this variant: A111U C150A C169U U176C
Found: 0.0188

Lookup: So what does the record say about reverse-splicing fitness for A111C A120C A145C C169G U176A ?
Found: 0.0217

Lookup: Bench note: what reverse-splicing fitness did A111U A120U A145C C150U C169G U176G show?
Found: 0.00222

Lookup: Which value of reverse-splicing fitness has been reported for C82A A111C A145G C150U C169U in the records?
Found: 0.0119

Lookup: I'd like to know its reverse-splicing fitness. The variant in question is C82G A111U A120U C150G U176A
Found: 0.00389

Lookup: reverse-splicing fitness for A111U A120U A145U C150A U176G ?
Found: 0.00946

Lookup: Please report the recorded reverse-splicing fitness for C82A A111C A120U A145U C150A C169U U176C .
Found: 0.00301

Lookup: What value of measured reverse-splicing fitness is listed for C82U A111G A120C A145U C150A C169G U176G ?
Found: 0.00457

Lookup: Suppose we examine the variant C82G A111U A145C C150G C169A U176C ; what reverse-splicing fitness value has been reported?
Found: 0.00812

Lookup: Please give the measured reverse-splicing fitness for this variant: A111U A120U C169G U176G
Found: 0.00197

Lookup: May I ask what reverse-splicing fitness has been recorded for C82U A111C A120G A145U C150A U176G ?
Found: 0.00424

Lookup: Fill blank: measured reverse-splicing fitness of the variant C82G A111C A120G C150A C169A U176C is ____.
Found: 0.0214

Lookup: What does the record list as reverse-splicing fitness for A111U A120C C150G C169U ?
Found: 0.02

Lookup: Reported reverse-splicing fitness for C82A A111C A120G C150G C169A U176G : what is it?
Found: 0.00659

Lookup: Which reverse-splicing fitness reading was recorded for the variant C82A A111G A120G A145U C150A C169U U176G ?
Found: 0.00457
